For each entry below, report its solubility value.
assay: Solubility of the compound in phosphate buffer at pH 7.4 by HPLC-UV method; type: physicochemical
One number for each entry, in µg/mL.

[
  {
    "chemical-smiles": "COc1ccc(Nc2nc(NC3CCCC3)c3ccccc3n2)cc1",
    "measure-unit": "µg/mL",
    "readout-value": 10.4
  },
  {
    "chemical-smiles": "N#Cc1ccc(Nc2nc(NCCCO)c3ccccc3n2)cc1",
    "measure-unit": "µg/mL",
    "readout-value": 7.52
  },
  {
    "chemical-smiles": "CCCNc1nc(Nc2ccc(OC)cc2)nc2ccccc12",
    "measure-unit": "µg/mL",
    "readout-value": 4.36
  }
]

Query string: What value of measured solubility is listed for Fc1ccc(Nc2nc(NC3CCCC3)c3ccccc3n2)cc1 ?
Result string: 1.54
